Assay: Foam appearance (color, odor, form)
Type: physicochemical
Set-up: key: No odor (N.O.)
Settings: active agent in stock of propylene glycol 91, stearyl alcohol 2, Klucel EF 2, laureth-4 2, glyceryl monostearate/PEG 100 stearate 3 (second Example 29)
property: ODOR

# compound, property, result
records = [
    ("O=C(O)Cc1ccccc1Nc1c(Cl)cccc1Cl [Diclofenac sodium]", "ODOR", "N.O"),
    ("CC(=O)N1CCN(c2ccc(OCC3COC(Cn4ccnc4)(c4ccc(Cl)cc4Cl)O3)cc2)CC1 (centres unmarked)", "ODOR", "N.O"),
    ("CC1(C)C(C=C(Cl)Cl)C1C(=O)OCc1cccc(Oc2ccccc2)c1 (stereo not drawn) [Permethrin BPC (cis:trans 25:75), Permethrin]", "ODOR", "No"),
    ("Cn1c(=O)c2c(ncn2C)n(C)c1=O", "ODOR", "N.O"),
    ("CCCCC(=O)O[C@]1(C(=O)CO)[C@@H](C)C[C@H]2[C@@H]3CCC4=CC(=O)C=C[C@]4(C)[C@@]3(F)[C@@H](O)C[C@@]21C [Betamethasone 17 valerate micronized, Betamethasone 17 valerate]", "ODOR", "N.O"),
]

====

Assay: Foam appearance (color, odor, form)
Type: physicochemical
Set-up: key: white (W)
Conditions: active agent in stock of PEG-400 97.5, hydroxypropyl cellulose 0.5, steareth 2 2.0 (first Example 29)
Counter-ions that a name gives are not always drawn.

# compound, COLOR
rows = [
    ("O=C(OOC(=O)c1ccccc1)c1ccccc1 [Benzoyl peroxide]", "W"),
    ("CC(=O)N1CCN(c2ccc(OCC3COC(Cn4ccnc4)(c4ccc(Cl)cc4Cl)O3)cc2)CC1 (centres unmarked) [Ketoconazole]", "W"),
    ("Nc1nc2c(ncn2COCCO)c(=O)[nH]1 [Acyclovir]", "W"),
    ("O=C(O)Cc1ccccc1Nc1c(Cl)cccc1Cl [Diclofenac sodium]", "W"),
    ("O=C(O)c1ccccc1O [Salicylic acid]", "W"),
    ("C/C(=C\\C(=O)OCCCCCCCCC(=O)O)C[C@@H]1OC[C@H](C[C@@H]2O[C@H]2[C@@H](C)[C@H](C)O)[C@@H](O)[C@H]1O [Mupirocin]", "W"),
    ("C=C1/C(=C\\C=C2/CCC[C@]3(C)[C@@H]([C@H](C)/C=C/[C@@H](O)C4CC4)CC[C@@H]23)C[C@@H](O)C[C@@H]1O [Calcipotriol hydrate]", "W"),
    ("CCCCC(=O)O[C@]1(C(=O)CO)[C@@H](C)C[C@H]2[C@@H]3CCC4=CC(=O)C=C[C@]4(C)[C@@]3(F)[C@@H](O)C[C@@]21C [Betamethasone 17 valerate micronized, Betamethasone 17 valerate]", "W"),
    ("Cc1cc(C2CCCCC2)n(O)c(=O)c1 [Ciclopiroxolamine]", "W"),
    ("O=C(O)CCCCCCCC(=O)O [Azelaic acid]", "W"),
    ("Cn1c(=O)c2c(ncn2C)n(C)c1=O [Caffeine]", "W"),
    ("CC1(C)C(C=C(Cl)Cl)C1C(=O)OCc1cccc(Oc2ccccc2)c1 (stereo not drawn) [Permethrin BPC (cis:trans 25:75), Permethrin]", "W"),
    ("CN1C(C(=O)Nc2ccccn2)=C(O)c2ccccc2S1(=O)=O [Piroxicam]", "Light"),
    ("CN(C/C=C/C#CC(C)(C)C)Cc1cccc2ccccc12 [Terbinafine HCl]", "W"),
]
